Entries and their internalization Top (MFI), A375 cells
Molecular target: T1, human interleukin 13 receptor subunit alpha 2 (IL-13RA2) (human, UniProt Q14627 27-380)
T1 sequence (looked up): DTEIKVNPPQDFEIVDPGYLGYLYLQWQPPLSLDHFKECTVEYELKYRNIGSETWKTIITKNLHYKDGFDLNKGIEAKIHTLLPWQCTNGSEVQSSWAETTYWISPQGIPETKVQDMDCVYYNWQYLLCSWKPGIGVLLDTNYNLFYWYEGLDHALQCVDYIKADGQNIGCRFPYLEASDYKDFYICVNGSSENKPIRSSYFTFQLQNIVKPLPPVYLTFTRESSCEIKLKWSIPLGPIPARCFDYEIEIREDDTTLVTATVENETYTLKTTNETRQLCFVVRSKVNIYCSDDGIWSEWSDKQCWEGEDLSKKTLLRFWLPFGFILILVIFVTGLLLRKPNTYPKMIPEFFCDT
Assay: cell-based or functional assay
The answer is to be given in MFI; state only the numeric part.

Please review the entries below; each comes with its answer.
{"binder": "xi61H8C1 hIgG1 (antibody, V domains shown) VH: QVQLQQSGAELARPGASVMLSCKASGYTFTSYWTQWIKQRPGQGLEGIGAIYPGDDDTSYNQKFKGKATLTADKSSSTAYMQLNSLTSEDSAVYYCARGATLLRPFPYWGQGTLVTVSA VL: DIVMTQSHKFMSTSVGDRVSITCKASQDVSTAVAWYQQKPGQSPKLLIYSASYRYTGVPDRFTGSGSGTDFTFTISSVQAEDLAVYSCQQHYSIPPTFGGGTKLEIK", "quantity-kind": "internalization Top (MFI), A375 cells", "observed-value": 3820}
{"binder": "xi73A11E2 hIgG1 (antibody, V domains shown) VH: EVKLVESGGGLVKPGGSLKLSCAASGFTFSSYGMSWVRQTPEKRLEWVATISGGGSYTYYPDSVKGRFTISRDNARNNLYLQMNSLRSEDTALYYCARRDLRSAMDYWGQGTSVTVSS VL: DIVMTQSQKFMSTSVGDRVSVTCKASQNVDINVAWYQQKPGQSPKALIYSASYRYSGVPDRFTGSGSGTDFTLTISNVQSEDLAEFFCQQYNSYPLTFGGGTKLEIK", "quantity-kind": "internalization Top (MFI), A375 cells", "observed-value": 4310}

Here is another binder to look at.
I am curious: what internalization Top (MFI), A375 cells value has been reported for xi54A4F7 hIgG1 (antibody, V domains shown) VH: EVKLVESGGGLVKPGGSLKLSCAASGFTFSSYGMSWVRQTPEKRLEWVATISGGGSYTYYPDSVKGRFTISRDNAKNNLYLQMSSLRSEDTALYYCARRDLRSAMDHWGQGTSVTVSS VL: DIVMTQSQKFMSTSVGDRVSVTCRASQNVDINVAWYQQKPGQSPKSLIYSASYRYSGVPDRFTGSGSGTDFTLTISNVQSEDLAEYFCQQYNSYPLTFGGGTKLEIR ?
5500
